- Test system: Gram negative anaerobic pathogens and facultative anaerobic pathogens
- experiment_summary: MIC by agar dilution, Brucella HK agar with 5% laked sheep blood, anaerobic reference strains
- Format: cell-based
- experimental_parameters: Bacteroides fragilis, Bacteroides fragilis GA-I7955; read-out: MIC
Reported MIC is given for each of the following compounds.
The figure you give is taken to be in µg/mL; do not add the unit.

INSERT INTO results (compound, numeric_value) VALUES
  ('C[C@@H](O)[C@H]1C(=O)N2C(C(=O)O)=C(SCCN=CN)C[C@H]12', 4),
  ('N[C@@H]1[C@H]2CN(c3nc4c(cc3F)c(=O)c(C(=O)O)cn4-c3ccc(F)cc3F)C[C@@H]12', 0.25);

// recorded MIC for `C[C@@H]1CN(c2c(F)c(N)c3c(=O)c(C(=O)O)cn(C4CC4)c3c2F)C[C@H](C)N1` : 1

// recorded MIC for CO/N=C1\CN(c2nc3c(cc2F)c(=O)c(C(=O)O)cn3C2CC2)CC1CN (racemic) : 2

====

- Test system: Salmonella spp.
- experiment_summary: MIC by agar dilution (NCCLS M7-A4), 288 enteropathogenic isolates, gemifloxacin and 15 other antimicrobials
- Type: cell-based
- experimental_parameters: Salmonella spp. N= 106
assay_readout: MIC (mg/L) Range

// molecule `O=C(O)c1cn(C2CC2)c2cc(N3CCNCC3)c(F)cc2c1=O` , assay Salmonella spp., MIC (mg/L) Range value: ≤0.015 to 1 mg/L

// molecule CO/N=C1\CN(c2nc3c(cc2F)c(=O)c(C(=O)O)cn3C2CC2)CC1CN (racemic) [Gemifloxacin (SB 265805)] , assay Salmonella spp., MIC (mg/L) Range value: ≤0.015 to 0.25 mg/L

// molecule `N[C@@H]1[C@H]2CN(c3nc4c(cc3F)c(=O)c(C(=O)O)cn4-c3ccc(F)cc3F)C[C@@H]12` , assay Salmonella spp., MIC (mg/L) Range value: ≤0.015 to 1 mg/L

// molecule `C[C@H]1COc2c(N3CCN(C)CC3)c(F)cc3c(=O)c(C(=O)O)cn1c23` , assay Salmonella spp., MIC (mg/L) Range value: 0.06 to 1 mg/L

// molecule CC1COc2c(N3CCN(C)CC3)c(F)cc3c(=O)c(C(=O)O)cn1c23 (stereo not drawn) , assay Salmonella spp., MIC (mg/L) Range value: 0.06 to 2 mg/L

====

- Test system: Staphylococcus epidermidis
- experiment_summary: MIC by NCCLS broth microdilution, 1100 Japanese clinical isolates 1997-1998
- Type: cell-based
- experimental_parameters: Staphylococcus epidermidis oxacillin resistant (n=43)
assay_readout: MIC Range

Worked examples, 3 compounds total:
INSERT INTO results (compound, result) VALUES
  ('N[C@@H]1[C@H]2CN(c3nc4c(cc3F)c(=O)c(C(=O)O)cn4-c3ccc(F)cc3F)C[C@@H]12', '0.032 to 8 µg/mL'),
  ('CO/N=C1\CN(c2nc3c(cc2F)c(=O)c(C(=O)O)cn3C2CC2)CC1CN (racemic)', '0.032 to 4 µg/mL'),
  ('C[C@H]1COc2c(N3CCN(C)CC3)c(F)cc3c(=O)c(C(=O)O)cn1c23', '0.25 to 16 µg/mL');

Note: attention shifts to another entry.
// recorded MIC Range for `C[C@@H]1CN(c2c(F)c(N)c3c(=O)c(C(=O)O)cn(C4CC4)c3c2F)C[C@H](C)N1` : 0.032 to 16 µg/mL

====

- Tested on: Haemophilus influenzae
- experiment_summary: MIC by NCCLS reference broth microdilution, 450 respiratory tract pathogens
- Type: cell-based
- experimental_parameters: Haemophilus influenzae, β-lactamase positive (n = 20)
assay_readout: MIC50 (µg/mL)
The figure you give is taken to be in µg/mL; do not add the unit.

Worked examples, 3 compounds total:
INSERT INTO measurements (compound, numeric_value) VALUES
  ('CO/N=C(\C(=O)N[C@@H]1C(=O)N2C(C(=O)O)=C(COC(N)=O)CS[C@H]12)c1ccco1 [Cefuroxime, cefuroxime]', 0.5),
  ('C[C@H]1COc2c(N3CCN(C)CC3)c(F)cc3c(=O)c(C(=O)O)cn1c23 [Levofloxacin, levofloxacin]', 0.015),
  ('C[C@@H]1CN(c2c(F)c(N)c3c(=O)c(C(=O)O)cn(C4CC4)c3c2F)C[C@H](C)N1 [Sparfloxacin, sparfloxacin]', 0.015);

// recorded MIC50 for COc1c(N2C[C@@H]3CCCN[C@@H]3C2)c(F)cc2c(=O)c(C(=O)O)cn(C3CC3)c12 [Moxifloxacin, moxifloxacin] : 0.015

====

Reported MIC is given for each of the following compounds.
- Test system: Shigella spp.
- experiment_summary: MIC by agar dilution (NCCLS M7-A4), 288 enteropathogenic isolates, gemifloxacin and 15 other antimicrobials
- Format: cell-based
- experimental_parameters: read-out: MIC (mg/L) 50%; Shigella spp. N= 21
- Protocol: [A. hydrophila (12), and A. sobria (4)], and 91 Campylobacter jejuni. […] The strains were stored in skimmed-milk at -80 °C until studied. The plates were incubated aerobically at 35 °C for 24 h, except for Campylobacter jejuni, where a microaerophilic atmosphere was obtained by using Campy Pack (Becton Dickinson, Cockeysville, MD, USA), and incubation was for 48 h. All organisms were tested with an inoculum of ≅ 10^4 cfu/spot. […]

Worked examples, 5 compounds total:
INSERT INTO results (compound, result) VALUES
  ('CO/N=C1\CN(c2nc3c(cc2F)c(=O)c(C(=O)O)cn3C2CC2)CC1CN (racemic) [Gemifloxacin (SB 265805)]', '≤ 0.015 mg/L'),
  ('CCn1cc(C(=O)O)c(=O)c2cc(F)c(N3CCNCC3)cc21', '0.06 mg/L'),
  ('CC1(C)S[C@@H]2[C@H](NC(=O)[C@H](N)c3ccc(O)cc3)C(=O)N2[C@H]1C(=O)O', '128 mg/L'),
  ('N[C@@H]1[C@H]2CN(c3nc4c(cc3F)c(=O)c(C(=O)O)cn4-c3ccc(F)cc3F)C[C@@H]12', '≤ 0.015 mg/L'),
  ('CC1(C)S[C@@H]2[C@H](NC(=O)[C@H](N)c3ccccc3)C(=O)N2[C@H]1C(=O)O', '64 mg/L');

Note: attention shifts to another entry.
// recorded MIC for `CCn1cc(C(=O)O)c(=O)c2ccc(C)nc21` : 1 mg/L

====

- System: Streptococcus pneumoniae
- experiment_summary: MIC by NCCLS reference broth microdilution, 450 respiratory tract pathogens
- Assay type: cell-based
- experimental_parameters: Streptococcus pneumoniae, Streptococcus pneumoniae (n = 100)
assay_readout: MIC50 (µg/mL)
The figure you give is taken to be in µg/mL; do not add the unit.

Worked examples, 5 molecules total:
INSERT INTO results (molecule, assay_readout, numeric_value) VALUES
  ('N[C@@H]1[C@H]2CN(c3nc4c(cc3F)c(=O)c(C(=O)O)cn4-c3ccc(F)cc3F)C[C@@H]12', 'MIC50', 0.12),
  ('C[C@H]1COc2c(N3CCN(C)CC3)c(F)cc3c(=O)c(C(=O)O)cn1c23', 'MIC50', 1),
  ('CO/N=C(\C(=O)N[C@@H]1C(=O)N2C(C(=O)O)=C(COC(N)=O)CS[C@H]12)c1ccco1', 'MIC50', 0.03),
  ('NC1CCN(c2c(F)cc3c(=O)c(C(=O)O)cn(C4CC4)c3c2Cl)C1 (stereo not drawn)', 'MIC50', 0.06),
  ('C[C@@H]1CN(c2c(F)c(N)c3c(=O)c(C(=O)O)cn(C4CC4)c3c2F)C[C@H](C)N1', 'MIC50', 0.5);

// recorded MIC50 for CO/N=C1\CN(c2nc3c(cc2F)c(=O)c(C(=O)O)cn3C2CC2)CC1CN (racemic) : 0.015

====

Reported MIC50 is given for each of the following compounds.
- Tested on: Streptococcus pneumoniae
- experiment_summary: MIC by NCCLS broth microdilution, 1100 Japanese clinical isolates 1997-1998
- Assay type: cell-based
- experimental_parameters: Streptococcus pneumoniae, Streptococcus pneumoniae amoxicillin resistant (n=40); read-out: MIC50
The figure you give is taken to be in µg/mL; do not add the unit.

// recorded MIC50 for `C[C@@H]1CN(c2c(F)c(N)c3c(=O)c(C(=O)O)cn(C4CC4)c3c2F)C[C@H](C)N1` : 0.25

// recorded MIC50 for `N[C@@H]1[C@H]2CN(c3nc4c(cc3F)c(=O)c(C(=O)O)cn4-c3ccc(F)cc3F)C[C@@H]12` : 0.063

// recorded MIC50 for CO/N=C1\CN(c2nc3c(cc2F)c(=O)c(C(=O)O)cn3C2CC2)CC1CN (racemic) : 0.032

// recorded MIC50 for NC1CCN(c2nc3c(cc2F)c(=O)c(C(=O)O)cn3-c2ccc(F)cc2F)C1 (centres unmarked) : 0.25

// recorded MIC50 for `C[C@H]1COc2c(N3CCN(C)CC3)c(F)cc3c(=O)c(C(=O)O)cn1c23` : 1
